These data points were gathered from patent US5478816A.

Assay: Short-term stability of vitamin D3 and vitamin D3 palmitate in liquid vitamin formulations at 40° C. (HPLC assay)
Type: physicochemical
Test Conditions: liquid vitamin formulation, pH 4.2, pH 4.2; 390 mg/ml water; 40° C.; first order fit of 16 weeks data; read-out: Time in Weeks for 50% Degradation (T50)

- Smiles: "C=C1CC[C@H](O)C/C1=C/C=C1\\CCC[C@]2(C)[C@@H]([C@H](C)CCCC(C)C)CC[C@@H]12"
  half-life, days: 44.8

* * *

Assay: Short-term stability of vitamin D3 and vitamin D3 palmitate in liquid vitamin formulations at 40° C. (HPLC assay)
Assay type: physicochemical
Test Conditions: liquid vitamin formulation, pH 5, pH 5.0; 390 mg/ml water; 40° C.; first order fit of 16 weeks data; read-out: Time in Weeks for 50% Degradation (T50)
Property Name: half-life (days)

- Smiles: "C=C1CC[C@H](O)C/C1=C/C=C1\\CCC[C@]2(C)[C@@H]([C@H](C)CCCC(C)C)CC[C@@H]12"
  Observed Measurement: 40.6

* * *

Assay: Short-term stability of vitamin D3 and vitamin D3 palmitate in liquid vitamin formulations at 40° C. (HPLC assay)
Assay type: physicochemical
Test Conditions: liquid vitamin formulation, pH 5.6, pH 5.6; 252 mg/ml water; 40° C.; first order fit of 16 weeks data; read-out: Time in Weeks for 50% Degradation (T50)

- Smiles: "C=C1CC[C@H](O)C/C1=C/C=C1\\CCC[C@]2(C)[C@@H]([C@H](C)CCCC(C)C)CC[C@@H]12"
  half-life / days: 146

* * *

Assay: Short-term stability of vitamin D3 and vitamin D3 palmitate in liquid vitamin formulations at 40° C. (HPLC assay)
Format: physicochemical
Test Conditions: liquid vitamin formulation, pH 4.2, pH 4.2; 252 mg/ml water; 40° C.; first order fit of 16 weeks data; read-out: Time in Weeks for 50% Degradation (T50)
Property Name: half-life (days)

- Smiles: "C=C1CC[C@H](O)C/C1=C/C=C1\\CCC[C@]2(C)[C@@H]([C@H](C)CCCC(C)C)CC[C@@H]12"
  Output Unit: "days"
  Observed Measurement: 105

* * *

Assay: Short-term stability of vitamin D3 and vitamin D3 palmitate in liquid vitamin formulations at 40° C. (HPLC assay)
Format: physicochemical
Test Conditions: liquid vitamin formulation, pH 5, pH 5.0; 252 mg/ml water; 40° C.; first order fit of 16 weeks data; read-out: Time in Weeks for 50% Degradation (T50)
Property Name: half-life (days)

- Compound: "C=C1CC[C@H](O)C/C1=C/C=C1\\CCC[C@]2(C)[C@@H]([C@H](C)CCCC(C)C)CC[C@@H]12 [Vitamin D3, vitamin D3]"
  Observed Measurement: 117

* * *

Assay: Short-term stability of vitamin D3 and vitamin D3 palmitate in liquid vitamin formulations at 40° C. (HPLC assay)
Format: physicochemical
Test Conditions: liquid vitamin formulation, pH 3.2, pH 3.2; 390 mg/ml water; 40° C.; first order fit of 16 weeks data; read-out: Time in Weeks for 50% Degradation (T50)

- Compound: "C=C1CC[C@H](O)C/C1=C/C=C1\\CCC[C@]2(C)[C@@H]([C@H](C)CCCC(C)C)CC[C@@H]12 [Vitamin D3, vitamin D3]"
  half-life, days: 73.5

* * *

Assay: Short-term stability of vitamin D3 and vitamin D3 palmitate in liquid vitamin formulations at 40° C. (HPLC assay)
Format: physicochemical
Test Conditions: liquid vitamin formulation, pH 5.6, pH 5.6; 390 mg/ml water; 40° C.; first order fit of 16 weeks data; read-out: Time in Weeks for 50% Degradation (T50)
Property Name: half-life (days)

- Molecule: "C=C1CC[C@H](O)C/C1=C/C=C1\\CCC[C@]2(C)[C@@H]([C@H](C)CCCC(C)C)CC[C@@H]12 [Vitamin D3, vitamin D3]"
  Output Unit: "days"
  Observed Measurement: 44.1
